Cited source: the kinase profiling compilation of Christmann-Franck et al. (2016)

residual activity values for the compounds below.
Target: MST1R (human) (UniProt Q04912)
Sequence (Q04912 whole entry, looked up): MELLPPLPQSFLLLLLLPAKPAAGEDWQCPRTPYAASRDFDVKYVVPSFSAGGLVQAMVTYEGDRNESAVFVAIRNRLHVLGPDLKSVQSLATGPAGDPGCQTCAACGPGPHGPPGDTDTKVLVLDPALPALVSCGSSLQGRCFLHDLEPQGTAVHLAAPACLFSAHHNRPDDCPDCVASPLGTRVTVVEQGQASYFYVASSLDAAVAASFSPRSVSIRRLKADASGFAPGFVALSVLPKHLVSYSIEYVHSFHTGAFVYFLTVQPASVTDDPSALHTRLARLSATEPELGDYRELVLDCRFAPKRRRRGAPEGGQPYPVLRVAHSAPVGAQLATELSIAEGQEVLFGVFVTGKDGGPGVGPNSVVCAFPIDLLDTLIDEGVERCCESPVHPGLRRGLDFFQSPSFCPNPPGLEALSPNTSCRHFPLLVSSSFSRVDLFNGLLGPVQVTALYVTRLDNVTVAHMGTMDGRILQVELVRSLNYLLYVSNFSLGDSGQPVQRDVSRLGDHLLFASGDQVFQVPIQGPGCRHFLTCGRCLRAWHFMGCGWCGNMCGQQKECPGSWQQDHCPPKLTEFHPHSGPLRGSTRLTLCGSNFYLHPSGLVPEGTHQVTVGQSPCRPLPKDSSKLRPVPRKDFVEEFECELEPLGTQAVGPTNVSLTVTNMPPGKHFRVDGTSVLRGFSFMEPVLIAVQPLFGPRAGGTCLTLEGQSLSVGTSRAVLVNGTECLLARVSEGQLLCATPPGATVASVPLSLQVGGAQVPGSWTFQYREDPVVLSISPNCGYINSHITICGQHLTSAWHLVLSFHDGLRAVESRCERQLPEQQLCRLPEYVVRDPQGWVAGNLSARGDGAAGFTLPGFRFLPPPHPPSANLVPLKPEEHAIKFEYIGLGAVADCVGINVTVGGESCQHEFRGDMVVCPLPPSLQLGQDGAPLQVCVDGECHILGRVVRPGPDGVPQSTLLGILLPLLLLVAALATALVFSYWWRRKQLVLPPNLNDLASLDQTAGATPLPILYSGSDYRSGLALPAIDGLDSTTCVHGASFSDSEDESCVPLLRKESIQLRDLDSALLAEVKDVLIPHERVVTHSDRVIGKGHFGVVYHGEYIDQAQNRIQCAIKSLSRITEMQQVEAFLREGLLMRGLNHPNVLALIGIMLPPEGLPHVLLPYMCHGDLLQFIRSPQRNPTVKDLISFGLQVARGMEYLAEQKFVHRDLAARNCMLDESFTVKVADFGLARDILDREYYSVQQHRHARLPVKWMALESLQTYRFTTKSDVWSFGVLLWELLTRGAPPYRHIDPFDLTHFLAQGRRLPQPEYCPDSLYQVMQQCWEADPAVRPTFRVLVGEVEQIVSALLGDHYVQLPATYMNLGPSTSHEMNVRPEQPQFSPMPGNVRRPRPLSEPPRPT
Assay: radiometric filter-binding kinase assay, Kinase HotSpot
Details: compound 0.5 µM; ATP 10 µM

Query: I would be grateful if you could share the reported residual activity for COc1cc2ncnc(Nc3ccc(F)c(Cl)c3)c2cc1OCCCN1CCOCC1 .
Response: 97.7%

Query: One more compound: CC(C)(C)c1nc2c3ccc(F)cc3c3c(=O)[nH]ccc3c2[nH]1
Response: 103%

Query: One more compound: COc1ccc(-c2cnc3c(-c4ccsc4)cnn3c2)cc1
Response: 91.6%

Query: One more compound: O=C(NC(NC(=S)Nc1ccc(F)c([N+](=O)[O-])c1)C(Cl)(Cl)Cl)C(c1ccccc1)c1ccccc1 (centres undefined)
Response: 102%

---

residual activity values for the molecules below.
Target: CDK2 CCNA2 (human) (UniProt P24941+P20248)
Sequence (P20248 whole entry, looked up, other chains not shown): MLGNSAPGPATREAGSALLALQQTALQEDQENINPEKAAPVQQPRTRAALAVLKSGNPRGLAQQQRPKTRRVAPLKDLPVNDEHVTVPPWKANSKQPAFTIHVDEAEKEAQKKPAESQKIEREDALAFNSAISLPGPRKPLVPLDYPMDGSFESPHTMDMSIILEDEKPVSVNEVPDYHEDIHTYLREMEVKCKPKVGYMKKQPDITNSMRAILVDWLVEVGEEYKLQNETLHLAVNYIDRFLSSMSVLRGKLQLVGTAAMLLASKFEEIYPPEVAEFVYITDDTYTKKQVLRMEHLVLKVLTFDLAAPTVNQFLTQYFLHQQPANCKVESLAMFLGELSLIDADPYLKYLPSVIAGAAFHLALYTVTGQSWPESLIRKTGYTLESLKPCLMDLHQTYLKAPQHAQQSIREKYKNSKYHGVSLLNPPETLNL
Experiment: radiometric filter-binding kinase assay, Kinase HotSpot
Conditions: compound 0.5 µM; ATP 10 µM
Write the answer as a number in %, unit excluded.

molecule	test-system	residual activity / %
CSc1nc(-c2ccc(F)cc2)c(-c2ccnc(NC(C)c3ccccc3)c2)[nH]1 (stereo not given)	CDK2 CCNA2 (human) (UniProt P24941+P20248)	96.8
CC(C)n1cnc2c(Nc3cccc(Cl)c3)nc(NCCO)nc21	CDK2 CCNA2 (human) (UniProt P24941+P20248)	42
CCOc1nc(NC(=O)Cc2cc(OC)ccc2OC)cc(N)c1C#N	CDK2 CCNA2 (human) (UniProt P24941+P20248)	104
NC(=O)c1ccc(-c2nc(-c3ccccn3)c(-c3ccc4c(c3)OCCO4)[nH]2)cc1	CDK2 CCNA2 (human) (UniProt P24941+P20248)	95
O=C(Nc1ccc(Cl)cc1)c1ccccc1NCc1ccncc1	CDK2 CCNA2 (human) (UniProt P24941+P20248)	92.2
COc1cc2nccc(Oc3ccc(NC(=S)NC(=O)c4ccccc4C)cc3)c2cc1OC	CDK2 CCNA2 (human) (UniProt P24941+P20248)	94.2
Cc1ccc(NC(=O)c2ccc(CN3CCN(C)CC3)cc2)cc1Nc1nc(-c2cccnc2)cs1	CDK2 CCNA2 (human) (UniProt P24941+P20248)	94.7
Cc1cc2ncc(-c3ccccc3)nc2cc1C	CDK2 CCNA2 (human) (UniProt P24941+P20248)	99.3

Query: I would be grateful if you could share the reported residual activity for CC(C)(C)c1nc2c3ccc(F)cc3c3c(=O)[nH]ccc3c2[nH]1 .
Response: 86.2

Query: One more molecule: CCCNC(=O)Nc1ccc(Oc2ncnc3cc(OC)c(OC)cc23)cc1Cl
Response: 92.8

---

Molecular target: WNK2 (human)
Assay: radiometric filter-binding kinase assay, Kinase HotSpot
Settings: compound 0.5 µM; ATP 10 µM
experimental-endpoint: residual activity (%)
Write the answer as a number in %, unit excluded.

molecule	residual activity [%]
O=C(Nc1ccc(Cl)cc1)c1ccccc1NCc1ccncc1	101

Query: Record Nc1nc(Nc2ccc(S(N)(=O)=O)cc2)nn1C(=S)Nc1c(F)cccc1F : what is its residual activity with WNK2 (human)?
Response: 97.9

Query: One more molecule: Oc1ccc(-c2nc(-c3ccc(F)cc3)c(-c3ccncc3)[nH]2)cc1
Response: 102

Query: One more molecule: COc1ccc(-c2cnc3c(-c4ccsc4)cnn3c2)cc1
Response: 103

Query: One more molecule: COc1cc2nccc(Oc3ccc(NC(=S)NC(=O)c4ccccc4C)cc3)c2cc1OC
Response: 94.1

Query: One more molecule: Clc1ccc(Nc2nnc(Cc3ccncc3)c3ccccc23)cc1
Response: 96.3

---

Target: EGFR (human) (UniProt P00533)
Sequence (P00533 whole entry, looked up): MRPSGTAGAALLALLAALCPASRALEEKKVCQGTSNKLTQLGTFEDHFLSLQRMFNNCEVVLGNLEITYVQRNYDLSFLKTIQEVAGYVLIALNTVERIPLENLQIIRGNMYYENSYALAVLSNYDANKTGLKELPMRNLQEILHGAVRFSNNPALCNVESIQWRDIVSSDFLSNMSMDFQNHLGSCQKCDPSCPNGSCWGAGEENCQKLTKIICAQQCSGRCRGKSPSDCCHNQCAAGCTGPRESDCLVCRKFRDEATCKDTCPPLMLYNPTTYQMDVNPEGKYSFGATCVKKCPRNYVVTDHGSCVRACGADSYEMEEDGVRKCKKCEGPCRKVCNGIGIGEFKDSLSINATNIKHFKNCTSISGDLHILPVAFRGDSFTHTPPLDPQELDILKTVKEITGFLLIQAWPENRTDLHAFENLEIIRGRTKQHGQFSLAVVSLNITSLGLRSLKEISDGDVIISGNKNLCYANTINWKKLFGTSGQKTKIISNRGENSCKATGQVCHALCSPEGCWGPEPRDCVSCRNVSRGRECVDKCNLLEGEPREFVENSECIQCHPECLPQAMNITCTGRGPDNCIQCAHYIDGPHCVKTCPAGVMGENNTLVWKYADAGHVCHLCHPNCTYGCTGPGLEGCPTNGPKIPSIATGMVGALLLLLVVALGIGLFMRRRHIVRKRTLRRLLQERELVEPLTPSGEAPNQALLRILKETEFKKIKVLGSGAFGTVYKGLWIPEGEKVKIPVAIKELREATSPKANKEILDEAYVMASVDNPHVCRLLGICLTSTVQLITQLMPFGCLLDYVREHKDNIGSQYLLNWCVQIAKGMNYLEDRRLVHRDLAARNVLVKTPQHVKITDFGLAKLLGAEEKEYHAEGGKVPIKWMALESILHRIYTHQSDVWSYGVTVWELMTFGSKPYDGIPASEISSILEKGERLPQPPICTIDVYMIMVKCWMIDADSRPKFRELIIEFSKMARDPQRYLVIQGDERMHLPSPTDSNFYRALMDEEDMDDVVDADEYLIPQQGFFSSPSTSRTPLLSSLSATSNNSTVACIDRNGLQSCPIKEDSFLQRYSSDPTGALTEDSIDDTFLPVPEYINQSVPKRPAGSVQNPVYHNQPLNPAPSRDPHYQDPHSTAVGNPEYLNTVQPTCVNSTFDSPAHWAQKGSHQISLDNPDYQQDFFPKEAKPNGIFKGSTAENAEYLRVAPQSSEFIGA
Assay: radiometric filter-binding kinase assay, Kinase HotSpot
Details: compound 0.5 µM; ATP 10 µM
If the reported residual activity equals or exceeds 90%, assign TRUE. If not, assign FALSE.

# example entries with known answers
compound	class-assignment
O=C(NC(NC(=S)Nc1ccc(F)c([N+](=O)[O-])c1)C(Cl)(Cl)Cl)C(c1ccccc1)c1ccccc1 (stereo not given)	TRUE
Nc1n[nH]c2nnc(-c3c(-c4ccccc4)nn4ccccc34)cc12	FALSE

Now look at this entry.
Query: Decide: residual activity of Cc1cc2ncc(-c3ccccc3)nc2cc1C >= 90%?
Response: FALSE

---

Molecular target: STK11 (human)
Test: radiometric filter-binding kinase assay, Kinase HotSpot
Details: compound 0.5 µM; ATP 10 µM
residual activity values for the molecules below.
Write the answer as a number in %, unit excluded.

molecule	unit-tag	residual activity
CCN1/C(=C/C(C)=O)Sc2ccc(OC)cc21	%	86.6

Query: I would be grateful if you could share the reported residual activity for CC(C)(C)c1nc2c3ccc(F)cc3c3c(=O)[nH]ccc3c2[nH]1 .
Response: 58.4

Query: One more molecule: Nc1nc(Nc2ccc(S(N)(=O)=O)cc2)nn1C(=S)Nc1c(F)cccc1F
Response: 23.5

Query: One more molecule: O=C(Nc1ccc(Cl)cc1)c1ccccc1NCc1ccncc1
Response: 93.5

Query: One more molecule: COc1cc2ncnc(Nc3ccc(F)c(Cl)c3)c2cc1OCCCN1CCOCC1
Response: 106

Query: One more molecule: COc1ccc(-c2cnc3c(-c4ccsc4)cnn3c2)cc1
Response: 95.9

---

Target: BRSK2 (human)
Test: radiometric filter-binding kinase assay, Kinase HotSpot
Settings: compound 0.5 µM; ATP 10 µM
experimental-endpoint: residual activity (%)
Write the answer as a number in %, unit excluded.

1. CCN1/C(=C/C(C)=O)Sc2ccc(OC)cc21 89.5
2. Nc1nc(Nc2ccc(S(N)(=O)=O)cc2)nn1C(=S)Nc1c(F)cccc1F 9.03
3. Nc1nc(Nc2ccc(S(N)(=O)=O)cc2)nn1C(=O)c1c(F)cccc1F 49

Here's the next entry for you.
Query: I would be grateful if you could share the reported residual activity for O=c1cc(-c2cccc3c2Sc2ccccc2S3)oc(N2CCOCC2)c1 .
Response: 101

---

residual activity values for the compounds below.
Target: CSNK1E (human)
Experiment: radiometric filter-binding kinase assay, Kinase HotSpot
Conditions: compound 0.5 µM; ATP 10 µM
Write the answer as a number in %, unit excluded.

Consider the reported residual activity for these compounds:
compound	test-system	experimental-endpoint	result-value
Cc1cc2ncc(-c3ccccc3)nc2cc1C	CSNK1E (human)	residual activity	85.5
Nc1nc(Nc2ccc(S(N)(=O)=O)cc2)nn1C(=S)Nc1c(F)cccc1F	CSNK1E (human)	residual activity	91.8
CC(C)(C)c1nc2c3ccc(F)cc3c3c(=O)[nH]ccc3c2[nH]1	CSNK1E (human)	residual activity	85.6
Nc1nc(Nc2ccc(S(N)(=O)=O)cc2)nn1C(=O)c1c(F)cccc1F	CSNK1E (human)	residual activity	96.9
CC(C)[C@H](CO)Nc1nc(Nc2cccc(Cl)c2)c2ncn(C(C)C)c2n1	CSNK1E (human)	residual activity	87.3
Clc1ccc(Nc2nnc(Cc3ccncc3)c3ccccc23)cc1	CSNK1E (human)	residual activity	99.1
CS(=O)c1ccc(-c2nc(-c3ccc(F)cc3)c(-c3ccncc3)[nH]2)cc1 (stereo unspecified)	CSNK1E (human)	residual activity	31
Cc1ccc(NC(=O)c2ccc(CN3CCN(C)CC3)cc2)cc1Nc1nc(-c2cccnc2)cs1	CSNK1E (human)	residual activity	98.8
C#Cc1cccc(Nc2ncnc3cc(OCCOC)c(OCCOC)cc23)c1	CSNK1E (human)	residual activity	98.2
O=C1Cc2c([nH]c3ccc([N+](=O)[O-])cc23)-c2ccccc2N1	CSNK1E (human)	residual activity	95.9

Query: I would be grateful if you could share the reported residual activity for O=C(NC(NC(=S)Nc1ccc(F)c([N+](=O)[O-])c1)C(Cl)(Cl)Cl)C(c1ccccc1)c1ccccc1 (stereo unspecified) .
Response: 111

Query: One more compound: O=C1Nc2ccccc2/C1=C\c1c(Cl)[nH]c2ccccc12
Response: 87.8

Query: One more compound: Oc1ccc(-c2nc(-c3ccc(F)cc3)c(-c3ccncc3)[nH]2)cc1
Response: 32.7

Query: One more compound: Nc1n[nH]c2nnc(-c3c(-c4ccccc4)nn4ccccc34)cc12
Response: 80.9

Query: One more compound: O=c1cc(N2CCNCC2)oc2c(-c3ccccc3)cccc12
Response: 101

Query: One more compound: O=C1Nc2cc(Br)ccc2/C1=C1/Nc2ccccc2/C1=N\O
Response: 83.7

Query: One more compound: O=c1cc(-c2cccc3c2Sc2ccccc2S3)oc(N2CCOCC2)c1
Response: 104

Query: One more compound: CCN1/C(=C/C(C)=O)Sc2ccc(OC)cc21
Response: 60.1

Query: One more compound: CCCNC(=O)Nc1ccc(Oc2ncnc3cc(OC)c(OC)cc23)cc1Cl
Response: 78.5

Query: One more compound: CC(C)n1cnc2c(Nc3cccc(Cl)c3)nc(NCCO)nc21
Response: 65.4

Query: One more compound: COc1cc2ncnc(Nc3ccc(F)c(Cl)c3)c2cc1OCCCN1CCOCC1
Response: 106
